target.system: T1, human ENTPD3 (Ectonucleoside triphosphate diphosphohydrolase 3) expressed on cells (human, UniProt O75355 1-529)
T1 construct: also called hENTPD3; huENTPD3
T1 sequence: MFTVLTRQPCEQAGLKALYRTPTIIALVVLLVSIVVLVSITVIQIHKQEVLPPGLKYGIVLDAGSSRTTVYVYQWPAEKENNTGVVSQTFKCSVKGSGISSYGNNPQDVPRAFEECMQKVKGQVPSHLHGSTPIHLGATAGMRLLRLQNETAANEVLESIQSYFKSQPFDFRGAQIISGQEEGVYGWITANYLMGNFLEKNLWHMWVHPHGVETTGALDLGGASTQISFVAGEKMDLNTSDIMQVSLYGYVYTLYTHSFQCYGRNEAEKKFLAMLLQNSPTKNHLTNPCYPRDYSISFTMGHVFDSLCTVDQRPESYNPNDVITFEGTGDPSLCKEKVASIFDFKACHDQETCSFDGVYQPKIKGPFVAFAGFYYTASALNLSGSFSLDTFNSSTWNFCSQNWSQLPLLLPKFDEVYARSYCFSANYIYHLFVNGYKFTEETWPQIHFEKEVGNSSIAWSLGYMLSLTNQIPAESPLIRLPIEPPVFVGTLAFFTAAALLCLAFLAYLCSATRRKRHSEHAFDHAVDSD
assay.notes: flow cytometry; soluble scFv on transfected HEK293T cells; anti-His PE
assay.readout: binding result

hg012-B7 scFv (scFv, Soluble scFv made in E. coli, with Myc tag and His tag) scFv: QVQLQQSGAEVKKPGASVKVSCKASGYTFTSYAMHWVRQAPGQRLEWMGWINAGNGNTKYSQKLQGRVTITRDTSASTAYMELSSLRSEDTAVYYCARDSGYDLFDYWGQGTLVTVSSGSASAPKLEEGEFSEARVQAVVTQEPSFSVSPGGTVTLTCGLTSGSVSTTYYPSWYQQTPGQTPRTLIYKTNLRSPGVPDRFSGSILGNKAALTITGAQADDDSDYYCLLYMGSGVWVFGGGTRLTVLGQPKAAPSVTLFPPSSAAAGSEQKLISEEDLSHHHHHH    binds
hg012-C1 scFv (scFv, Soluble scFv made in E. coli, with Myc tag and His tag) scFv: QVQLVQSGAEVKKPGESLKISCKGSGYSFTSYWIGWVRQMPGKGLEWMGIIYPGDSGTRYSPSFQGQVTISADKSISTAYLQWSSLKASNTAMYYCARQQGAGAFDIWGQGTMVTVSSGSASAPKLEEGEFSEARVQSALTQPPSASGSPGQSVTISCTGTSRDVGGYNYVSWYQQHPGKAPKLILYEVTKRPSGVPDRFSGSKSGNTASLTISGLQAEDEADYYCSSYTSSSTVVFGGGTKLTVLGQPKAAPSVTLFPPSSAAAGSEQKLISEEDLSHHHHHH    binds
hg012-D3 scFv (scFv, Soluble scFv made in E. coli, with Myc tag and His tag) scFv: QVQLVQSGGGLVQPGRSLRLSCAASGFTFDDYAMHWVRQAPGKGLEWVSGISWNSGSIGYADSVKGRFTISRDNAKNSLYLQMNSLRAEDTALYYCAKGANYDILTGYEYWGQGTLVTVSSGSASAPKLEEGEFSEARVQAVVTQEPSLTVSPGETVTLTCGSSTGAVTSDHHPYWFQQKPGQVPRTLMHDTSTRYSWTPARFSGSIVGGKAALTLSGAQPEDEAEYHCFLYYSGTAIFGGGTKLTVLSQPKAAPSVTLFPPSSAAAGSEQKLISEEDLSHHHHHH    binds
